Test: Toxicity liver stage against HepG2, at 10uM
Format: cell-based
Set-up: test concentration 10 uM, cell line HepG2-A16-CD81EGFP
Settings: human, HepG2-A16-CD81EGFP cells; read-out: INHIBITION
Field: cytotoxicity at 10 µM. Provide a value for each of the compounds that follow.
Lab book: enter the figure in %, no units written.

Report cytotoxicity at 10 µM for `N#Cc1cc(F)c(NCCc2cccnc2)c(F)c1` please.
-68.5

Report cytotoxicity at 10 µM for `Cc1cccc(NC(=O)Cc2cnc3n(C)c(=O)[nH]c(=O)n23)c1` please.
-5.17

Report cytotoxicity at 10 µM for COc1cccc(N2CCN(C(C(=O)O)c3ccc(OC)nc3)CC2)c1 (stereo unspecified) please.
14.5

Report cytotoxicity at 10 µM for `CN(CCN1CCCCCC1)C(=O)c1cc(CN2CCC(O)CC2)on1` please.
-17.5

Report cytotoxicity at 10 µM for `Cn1cnc2ccc(NC(=O)CC3CCN(S(C)(=O)=O)CC3)cc21` please.
22.6

Report cytotoxicity at 10 µM for `CC(C)CN1C[C@@H]2C[C@H](C(=O)NC3CCC3)[C@H](C1)O2` please.
2.37

Report cytotoxicity at 10 µM for CC(c1ccccc1)n1c(SCC(=O)O)nnc1-c1ccccc1Cl (stereo unspecified) please.
1.31

Report cytotoxicity at 10 µM for NC(=O)N1Cc2nccn2CC(Cn2ncccc2=O)C1 (stereo unspecified) please.
3.19

Report cytotoxicity at 10 µM for CC(C)c1nccn1-c1nccnc1C1CCCN1Cc1cccnc1 (stereo unspecified) please.
7.77

Report cytotoxicity at 10 µM for O=C1CC(c2ccccc2Br)c2sc(N3CCOCC3)nc2N1 (stereo unspecified) please.
9.4

Report cytotoxicity at 10 µM for `O=C1NCCO[C@H]2CN(C(=O)CCc3ccc(Cl)cc3)CC[C@@H]12` please.
11.1

* * *

Assay: Toxicity liver stage against HepG2, at 10uM
Type: cell-based
Parameters: test concentration 10 uM, cell line HepG2-A16-CD81EGFP
Details: human, HepG2-A16-CD81EGFP cells; read-out: INHIBITION
METRIC: cytotoxicity at 10 µM (%)
Lab book: enter the figure in %, no units written.

Report cytotoxicity at 10 µM for `CC(C)c1cc(C(=O)NCC2(C(N)=O)CCOCC2)nn1C(C)(C)C` please.
10.3

Report cytotoxicity at 10 µM for COc1cc2c(cc1CNCc1cccnc1OC)OC(C)C2 (centres undefined) please.
3.67

Report cytotoxicity at 10 µM for `Cc1ccc(-c2cc(N)c(=O)n(CC(=O)NC3CCCC3)n2)s1` please.
-20.3

Report cytotoxicity at 10 µM for `O=C(CCn1ccnc1)N1CC[C@H](Oc2ccc(F)cc2)[C@@H](O)CC1` please.
-3.06

Report cytotoxicity at 10 µM for `Cc1cnc(N2CCC[C@@H]3CN(CC(=O)N(C)C)C[C@@H]32)nc1` please.
11.4

Report cytotoxicity at 10 µM for `Cc1ncc(-c2ccnc(N[C@@H](C)CO)n2)c(C2CCCCC2)n1` please.
-20.7

Report cytotoxicity at 10 µM for `O=C(Cn1cccc(S(=O)(=O)N2CCCC2)c1=O)c1ccccc1Cl` please.
1.08

Report cytotoxicity at 10 µM for `COc1cccc(C(=O)NCc2ccccc2S(=O)(=O)N(C)CCO)c1` please.
-4.73

Report cytotoxicity at 10 µM for CC(C)CCN1C2(CCN(C(=O)CN(C)C)C2)c2ccccc2S1(=O)=O (centres undefined) please.
-4.14

Report cytotoxicity at 10 µM for `COc1ccc(C)cc1NS(=O)(=O)c1ccc(CCNC(C)=O)s1` please.
0.549

Report cytotoxicity at 10 µM for CO[C@H]1CN(C(=O)OC(C)(C)C)CC1NCc1ccoc1 (some centres undefined) please.
-51.8

Report cytotoxicity at 10 µM for O=C(CCN1CCOC(C(F)(F)F)C1)NCc1ccc(Cl)cc1 (centres undefined) please.
-9.93

Report cytotoxicity at 10 µM for `COC1CCN(c2ccc(F)cc2CN(C)CC(N)=O)CC1` please.
-6.91

Report cytotoxicity at 10 µM for CCc1cccc(C)c1NC(=O)C1CC(=O)N(Cc2ccccn2)C1 (centres undefined) please.
1.09

Report cytotoxicity at 10 µM for CC(O)CN1CCN(C(=O)c2ccc(Cn3cccn3)cc2)CC1 (centres undefined) please.
-1.45

Report cytotoxicity at 10 µM for `CCN1CCN(c2ncc(-c3cc(C)no3)c(-c3ccoc3C)n2)CC1` please.
1.16

Report cytotoxicity at 10 µM for CC(C)c1nn(C)c(N(C)C)c1CNC1CCCOc2ccccc21 (centres undefined) please.
-13.1

Report cytotoxicity at 10 µM for `Cc1cc2ccccc2n1CC(=O)NCC(=O)N1CCOCC1` please.
-7.7

Report cytotoxicity at 10 µM for `CC(C)(C)c1noc(CCC(=O)N2CCNC(=O)C2)n1` please.
-4.96

Report cytotoxicity at 10 µM for `Cc1cnn(CCNCc2ccccc2F)c1` please.
-9.54

Report cytotoxicity at 10 µM for O=C(c1ccon1)N1CCCCC1c1nc2cc(F)ccc2[nH]1 (centres undefined) please.
2.58

Report cytotoxicity at 10 µM for `N#CCSCCCN1CCC(C(=O)N2CCCCCC2)CC1` please.
5.37

Report cytotoxicity at 10 µM for Cn1nc(C2CCCN(Cc3cccs3)C2)c2nccnc21 (centres undefined) please.
4.2

Report cytotoxicity at 10 µM for CC(C)NC(=O)N1CCCCC1c1nnc2n1CCNC2 (centres undefined) please.
14.3
